System: morningglory (Ipomoea spp.)
test.details: Test A pre-/postemergence plant response
Assay type: in vivo
measurement.context: Preemergence, 125 g ai/ha; 0 to 100 scale, 0 = no effect, 100 = complete control
quantity: Plant response rating, Morningglory

Worked cases, answers included:
> print(dat)
                                   molecule           measurement.target  experimental.value
1  Cc1ccc(Cl)cc1-n1c(-c2cccc(F)c2)ncc(C(=O)C2=C(O)CCCC2=O)c1=O  morningglory (Ipomoea spp.)                  10
2  COCC(C)n1c(-c2ccccc2)ncc(C(=O)C2=C(O)CCCC2=O)c1=O (centres unmarked)  morningglory (Ipomoea spp.)                  70
3  O=C1CCCC(O)=C1C(=O)c1cnc(-c2ccccc2)n(-c2cccc(Br)c2)c1=O  morningglory (Ipomoea spp.)                   0
4  Cc1cc(-n2c(-c3ccccc3)ncc(C(=O)C3=C(O)CCCC3=O)c2=O)ccc1F  morningglory (Ipomoea spp.)                  80
5  Cc1cccc(-c2ncc(C(=O)C3=C(O)CCCC3=O)c(=O)n2-c2ccccc2C)c1  morningglory (Ipomoea spp.)                   0
6  O=C1CCCC(O)=C1C(=O)c1cnc(-c2cccc(F)c2)n(CCC(F)(F)F)c1=O  morningglory (Ipomoea spp.)                   0
7  CCCCc1ncc(C(=O)C2=C(O)CCCC2=O)c(=O)n1-c1ccc(C)cc1  morningglory (Ipomoea spp.)                  30
8  CCCCc1ncc(C(=O)C2=C(O)CCCC2=O)c(=O)n1-c1cccc(C)c1  morningglory (Ipomoea spp.)                  10

Ask: Value lookup for Plant response rating, Morningglory; key = "O=C1CCCC(O)=C1C(=O)c1cnc(-c2ccccc2)n(C2CCSCC2)c1=O"
Reply: 10

Ask: Would you mind telling me what Plant response rating, Morningglory value was observed for "CCn1c(Cc2ccccc2)ncc(C(=O)C2=C(O)CCCC2=O)c1=O" ?
Reply: 0

Ask: Entry CCCn1c(-c2ccsc2)ncc(C(=O)C2=C(O)C3CCC(C3)C2=O)c1=O (centres unmarked) : reported Plant response rating, Morningglory = ?
Reply: 50

Ask: Which Plant response rating, Morningglory value belongs to O=C1CCCC(O)=C1C(=O)c1cnc(-c2cccc(Cl)c2)n(CC2CCCO2)c1=O (centres unmarked) ?
Reply: 0

* * *

Tested on: umbrella sedge (Cyperus difformis)
test.details: Test B flooded paddy test
Format: in vivo
measurement.context: Flood (flooded paddy test), 62 g ai/ha; scale of 0 to 100 where 0 is no effect and 100 is complete control; 13 to 15 days
Catalogue of Plant response rating, Sedge, Umbrella values
The reply should be a number, written without any unit.

Use these answered entries as a reference point.
> print(dat)
                                   molecule  experimental.value
1  O=C(C1=C(O)C2CCC(C2)C1=O)c1cnc(-c2cccc(Br)c2)n(C2CCCCC2)c1=O (stereo not shown) [Compound 252]                   0
2  CCCCn1c(-c2cccc(C)c2)ncc(C(=O)C2=C(O)CCCC2=O)c1=O [Compound 116]                  75
3  CCn1c(-c2ccccc2)ncc(C(=O)C2=C(O)C3CCC(C3)C2=O)c1=O (stereo not shown) [Compound 239]                   0

From here, focus on the item given below.
Ask: Which Plant response rating, Sedge, Umbrella is listed for COc1ccc(-n2c(-c3ccccc3)ncc(C(=O)C3=C(O)CCCC3=O)c2=O)c(OC)c1 [Compound 256] ?
Reply: 40
